This collection of values is drawn from patent US20020137929A1.

tested on: AMBEL (Ragweed, Common); assay: Preemergence herbicidal evaluation; assay type: in vivo, Ambrosia artemisifolia; conditions: rate 0.0313 kg/ha; rated 4-5 weeks after treatment
The entries below are paired with their reported Preemergence herbicidal rating AMBEL.
Kindly provide the number alone.

See these solved cases before continuing.
COC(=O)COC(=O)CN1C(=O)CSC1=Nc1cc(-n2c(=O)cc(C(F)(F)F)n(C)c2=O)c(F)cc1Cl [Compound 108]; 0.0
CCOC(=O)CN1C(=O)C(C(=O)OC)SC1=Nc1cc(-n2c(=O)cc(C(F)(F)F)n(C)c2=O)c(F)cc1Cl (stereo not drawn) [Compound 128]; 0.0

# ---- query compound ----
IN: Dear colleague, I am looking for the recorded Preemergence herbicidal rating AMBEL of the following compound: Cn1c(C(F)(F)F)cc(=O)n(-c2cc(N=C3SCC(=O)N3CC(=O)OC3CCCC3)c(Cl)cc2F)c1=O [Compound 120]
OUT: 0.0
